Answer each item with its documented AUC(0-inf).
test: Pharmacokinetic study in rats after oral administration of cinobufacini capsule (UPLC-MS/MS of plasma); assay type: in vivo, rat; conditions: male, Sprague-Dawley, in vivo; rat plasma, oral cinobufacini capsule 3.6 g/kg (high), mean ± SD, n = 6

# input Any idea what AUC(0-inf) was measured for C[C@]12CC[C@H](O)C[C@@]1(O)CC[C@@H]1[C@@H]2CC[C@]2(C)[C@@H](c3ccc(=O)oc3)CC[C@]12O [TCG, telocinobufagin] ?
# output 217 ng·h/mL

# input Any idea what AUC(0-inf) was measured for C[C@]12CC[C@H](O)C[C@H]1CC[C@@H]1[C@@H]2CC[C@]2(C)[C@@H](c3ccc(=O)oc3)CC[C@]12O [BF, bufalin] ?
# output 461 ng·h/mL

# input Any idea what AUC(0-inf) was measured for C[C@]12CC[C@H]3[C@@H](CC[C@]4(O)C[C@@H](O)CC[C@]34C=O)[C@@]1(O)CC[C@@H]2c1ccc(=O)oc1 [HBG, hellebrigenin] ?
# output 31.1 ng·h/mL

# input Any idea what AUC(0-inf) was measured for C[C@]12CC[C@H](O)C[C@H]1CC[C@@H]1[C@@H]2[C@H](O)C[C@]2(C)[C@@H](c3ccc(=O)oc3)CC[C@]12O [GBL, gamabufotalin] ?
# output 54.5 ng·h/mL

# input Any idea what AUC(0-inf) was measured for C[C@]12CC[C@H](O)C[C@@]1(O)CC[C@@H]1[C@@H]2CC[C@]2(C)[C@@H](c3ccc(=O)oc3)[C@@H](O)[C@H]3O[C@]132 [DCT, desacetylcinobufotalin] ?
# output 62.7 ng·h/mL

# input Any idea what AUC(0-inf) was measured for C[C@]12CC[C@H](O)C[C@H]1CC[C@@H]1[C@@H]2C(=O)[C@@H](O)[C@]2(C)[C@@H](c3ccc(=O)oc3)CC[C@]12O [PBG, pseudobufarenogin] ?
# output 47.7 ng·h/mL

# input Any idea what AUC(0-inf) was measured for C[C@]12CC[C@H](O)C[C@H]1CC[C@@H]1[C@@H]2[C@H](O)C(=O)[C@]2(C)[C@@H](c3ccc(=O)oc3)CC[C@]12O [ABG, arenobufagin] ?
# output 87.6 ng·h/mL

# input Any idea what AUC(0-inf) was measured for C[C@]12CC[C@H](O)C[C@H]1CC[C@@H]1[C@@H]2CC[C@]2(C)[C@@H](c3ccc(=O)oc3)[C@@H](O)[C@H]3O[C@]132 [DCG, desacetylcinobufagin] ?
# output 150 ng·h/mL

----------
Answer each item with its documented CL/F.
assay: Pharmacokinetic study in rats after oral administration of cinobufacini capsule (UPLC-MS/MS of plasma); assay type: in vivo, rat; settings: male, Sprague-Dawley, in vivo; rat plasma, oral cinobufacini capsule 3.6 g/kg (high), mean ± SD, n = 6; read-out: CLz/F (converted)
The reply should consist of the numeric value with the unit placed after it.

# input Any idea what CL/F was measured for C[C@]12CC[C@H](O)C[C@H]1CC[C@@H]1[C@@H]2CC[C@]2(C)[C@@H](c3ccc(=O)oc3)[C@@H](O)[C@H]3O[C@]132 ?
# output 17.2 mL/min/kg

# input Any idea what CL/F was measured for C[C@]12CC[C@H](O)C[C@H]1CC[C@@H]1[C@@H]2[C@H](O)C(=O)[C@]2(C)[C@@H](c3ccc(=O)oc3)CC[C@]12O ?
# output 77.5 mL/min/kg

# input Any idea what CL/F was measured for C[C@]12CC[C@H](O)C[C@H]1CC[C@@H]1[C@@H]2CC[C@]2(C)[C@@H](c3ccc(=O)oc3)CC[C@]12O ?
# output 27.3 mL/min/kg

----------
experiment: Stability of analytes in rat plasma QC samples under storage conditions; format: physicochemical; conditions: rat plasma, −80°C to room temperature; low QC level (4.99–5.00 ng/ml), n = 6
OUTCOME_MEASURE: Three freeze–thaw cycles, RE

# input Any idea what Three freeze–thaw cycles, RE was measured for C[C@]12CC[C@H](O)C[C@H]1CC[C@@H]1[C@@H]2[C@H](O)C(=O)[C@]2(C)[C@@H](c3ccc(=O)oc3)CC[C@]12O [ABG, arenobufagin] ?
# output 2.5%

# input Any idea what Three freeze–thaw cycles, RE was measured for C[C@]12CC[C@H](O)C[C@H]1CC[C@@H]1[C@@H]2[C@H](O)C[C@]2(C)[C@@H](c3ccc(=O)oc3)CC[C@]12O [GBL, gamabufotalin] ?
# output 13.2%

# input Any idea what Three freeze–thaw cycles, RE was measured for CC(=O)O[C@H]1[C@H]2O[C@]23[C@@H]2CC[C@@H]4C[C@@H](O)CC[C@]4(C)[C@H]2CC[C@]3(C)[C@H]1c1ccc(=O)oc1 [CBG, cinobufagin] ?
# output 4.8%

# input Any idea what Three freeze–thaw cycles, RE was measured for C[C@]12CC[C@H](O)C[C@H]1CC[C@@H]1[C@@H]2CC[C@]2(C)[C@@H](c3ccc(=O)oc3)C[C@H]3O[C@]132 [RBG, resibufogenin] ?
# output −0.3%

# input Any idea what Three freeze–thaw cycles, RE was measured for C[C@]12CC[C@H](O)C[C@@]1(O)CC[C@@H]1[C@@H]2CC[C@]2(C)[C@@H](c3ccc(=O)oc3)[C@@H](O)[C@H]3O[C@]132 [DCT, desacetylcinobufotalin] ?
# output 3.7%

----------
assay: Stability of analytes in rat plasma QC samples under storage conditions; assay type: physicochemical; settings: rat plasma, long-term; medium QC level (49.92–50.06 ng/ml), n = 6
Answer each item with its documented −80°C for 30 days, RE.
Please give a number only; it is taken to be in %.

# input Any idea what −80°C for 30 days, RE was measured for C[C@]12CC[C@H](O)C[C@H]1CC[C@@H]1[C@@H]2CC[C@]2(C)[C@@H](c3ccc(=O)oc3)[C@@H](O)[C@H]3O[C@]132 [DCG, desacetylcinobufagin] ?
# output 3.8

# input Any idea what −80°C for 30 days, RE was measured for C[C@]12CC[C@H]3[C@@H](CC[C@]4(O)C[C@@H](O)CC[C@]34C=O)[C@@]1(O)CC[C@@H]2c1ccc(=O)oc1 [HBG, hellebrigenin] ?
# output 8.9

# input Any idea what −80°C for 30 days, RE was measured for C[C@]12CC[C@H](O)C[C@H]1CC[C@@H]1[C@@H]2CC[C@]2(C)[C@@H](c3ccc(=O)oc3)C[C@H]3O[C@]132 [RBG, resibufogenin] ?
# output 2.3

# input Any idea what −80°C for 30 days, RE was measured for C[C@]12CC[C@H](O)C[C@H]1CC[C@@H]1[C@@H]2CC[C@]2(C)[C@@H](c3ccc(=O)oc3)CC[C@]12O [BF, bufalin] ?
# output −12.6

# input Any idea what −80°C for 30 days, RE was measured for C[C@]12CC[C@H](O)C[C@@]1(O)CC[C@@H]1[C@@H]2CC[C@]2(C)[C@@H](c3ccc(=O)oc3)CC[C@]12O [TCG, telocinobufagin] ?
# output 3.8

----------
experiment: Pharmacokinetic study in rats after oral administration of cinobufacini capsule (UPLC-MS/MS of plasma); assay type: in vivo, rat; conditions: male, Sprague-Dawley, in vivo; rat plasma, oral cinobufacini capsule 1.8 g/kg (medium), mean ± SD, n = 6
OUTCOME_MEASURE: AUC(0-inf)

# input Any idea what AUC(0-inf) was measured for C[C@]12CC[C@H](O)C[C@H]1CC[C@@H]1[C@@H]2C(=O)[C@@H](O)[C@]2(C)[C@@H](c3ccc(=O)oc3)CC[C@]12O ?
# output 28.6 ng·h/mL

# input Any idea what AUC(0-inf) was measured for C[C@]12CC[C@H](O)C[C@H]1CC[C@@H]1[C@@H]2[C@H](O)C(=O)[C@]2(C)[C@@H](c3ccc(=O)oc3)CC[C@]12O ?
# output 45.9 ng·h/mL

# input Any idea what AUC(0-inf) was measured for C[C@]12CC[C@H](O)C[C@@]1(O)CC[C@@H]1[C@@H]2CC[C@]2(C)[C@@H](c3ccc(=O)oc3)CC[C@]12O ?
# output 89.9 ng·h/mL

----------
test: Stability of analytes in rat plasma QC samples under storage conditions; assay type: physicochemical; conditions: rat plasma, −80°C to room temperature; high QC level (249.58–250.28 ng/ml), n = 6
OUTCOME_MEASURE: Three freeze–thaw cycles, RE (%)
Please give a number only; it is taken to be in %.

# input Any idea what Three freeze–thaw cycles, RE was measured for C[C@]12CC[C@H](O)C[C@H]1CC[C@@H]1[C@@H]2CC[C@]2(C)[C@@H](c3ccc(=O)oc3)CC[C@]12O ?
# output 0.8

# input Any idea what Three freeze–thaw cycles, RE was measured for C[C@]12CC[C@H](O)C[C@@]1(O)CC[C@@H]1[C@@H]2CC[C@]2(C)[C@@H](c3ccc(=O)oc3)[C@@H](O)[C@H]3O[C@]132 ?
# output 7.3

# input Any idea what Three freeze–thaw cycles, RE was measured for CC(=O)O[C@H]1[C@H]2O[C@]23[C@@H]2CC[C@@H]4C[C@@H](O)CC[C@]4(C)[C@H]2CC[C@]3(C)[C@H]1c1ccc(=O)oc1 ?
# output 3.4

# input Any idea what Three freeze–thaw cycles, RE was measured for C[C@]12CC[C@H](O)C[C@H]1CC[C@@H]1[C@@H]2[C@H](O)C[C@]2(C)[C@@H](c3ccc(=O)oc3)CC[C@]12O ?
# output −0.6

# input Any idea what Three freeze–thaw cycles, RE was measured for CC(=O)O[C@H]1C[C@]2(O)[C@@H]3CC[C@@H]4C[C@@H](O)CC[C@]4(C)[C@H]3CC[C@]2(C)[C@H]1c1ccc(=O)oc1 ?
# output 7.1

# input Any idea what Three freeze–thaw cycles, RE was measured for C[C@]12CC[C@H](O)C[C@H]1CC[C@@H]1[C@@H]2C(=O)[C@@H](O)[C@]2(C)[C@@H](c3ccc(=O)oc3)CC[C@]12O ?
# output 7.7

# input Any idea what Three freeze–thaw cycles, RE was measured for C[C@]12CC[C@H](O)C[C@H]1CC[C@@H]1[C@@H]2CC[C@]2(C)[C@@H](c3ccc(=O)oc3)C[C@H]3O[C@]132 ?
# output −1.9

# input Any idea what Three freeze–thaw cycles, RE was measured for C[C@]12CC[C@H]3[C@@H](CC[C@]4(O)C[C@@H](O)CC[C@]34C=O)[C@@]1(O)CC[C@@H]2c1ccc(=O)oc1 ?
# output 1.5

# input Any idea what Three freeze–thaw cycles, RE was measured for C[C@]12CC[C@H](O)C[C@H]1CC[C@@H]1[C@@H]2[C@H](O)C(=O)[C@]2(C)[C@@H](c3ccc(=O)oc3)CC[C@]12O ?
# output 0.7

Where do these numbers come from? They come from paper PMC9343874.
